Listed below: pEC50 values for each entry.
Molecular target: T1, human LAG3, full length, stably expressed on cells (human, UniProt P18627 23-525)
T1 construct: whole, on cells; also called CHOK1-human LAG3
T1 sequence (looked up): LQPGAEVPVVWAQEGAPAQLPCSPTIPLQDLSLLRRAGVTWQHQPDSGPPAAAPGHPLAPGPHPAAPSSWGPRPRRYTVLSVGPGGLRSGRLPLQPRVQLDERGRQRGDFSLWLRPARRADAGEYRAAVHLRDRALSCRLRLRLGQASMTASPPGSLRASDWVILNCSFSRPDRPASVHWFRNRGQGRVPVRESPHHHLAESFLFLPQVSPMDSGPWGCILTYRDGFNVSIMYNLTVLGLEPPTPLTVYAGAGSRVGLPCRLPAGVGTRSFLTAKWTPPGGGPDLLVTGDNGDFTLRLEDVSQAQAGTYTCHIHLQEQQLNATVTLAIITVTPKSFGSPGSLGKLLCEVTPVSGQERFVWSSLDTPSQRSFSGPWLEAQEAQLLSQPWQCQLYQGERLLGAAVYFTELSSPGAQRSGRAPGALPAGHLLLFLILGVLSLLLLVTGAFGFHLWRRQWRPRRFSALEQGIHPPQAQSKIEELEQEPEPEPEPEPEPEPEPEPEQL
Assay: FACS on 293F cells stably expressing human LAG3
Scale explanation: pEC50 corresponds to minus log10 of a concentration expressed in moles per litre.

Recorded pEC50, per entry:
hu023.10 (antibody, human IgG4, V domains shown, humanized from 023c) VH: QVQLVQSGPELKKPGASVKVSCKASGYTFTESPMNWVRQAPGQGFEWMGIIYTDTGEPTYAEEFKGRFVFSLDTSVSTAYLQISSLKAEDTAVYFCVSDYGSILYWYFDVWGQGTLVTVSS VL: DIQMTQSPSSLSASVGDRVTITCKASQDVSTAVAWYQQKPGKAPKLLIYSASYRYTGVPSRFSGSGSGTDFTLTISSLQPEDFATYYCQQHYNAPPTFGQGTKLEIK
9.70
hu023.13 (antibody, human IgG4, V domains shown, humanized from 023c) VH: QIQLVQSGPELKKPGASVKISCKASGYTFTESPMNWVRQAPGQGFEWMGIIYTDTGEPTYAEEFKGRFVFSLDTSVSTAYLQISSLKAEDTAVYFCVSDYGSILYWYFDVWGQGTLVTVSS VL: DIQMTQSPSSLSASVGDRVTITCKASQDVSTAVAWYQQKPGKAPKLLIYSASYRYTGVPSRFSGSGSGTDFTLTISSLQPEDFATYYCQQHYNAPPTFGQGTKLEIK
9.72
hu023.04 (antibody, human IgG4, V domains shown, humanized from 023c) VH: QVQLVQSGAEVKKPGASVKVSCKASGYTFTESPMNWVRQAPGQGFEWMGIIYTDTGEPTYAEEFKGRVTMTRDTSTSTVYMELSSLRSEDTAVYFCASDYGSILYWYFDVWGQGTLVTVSS VL: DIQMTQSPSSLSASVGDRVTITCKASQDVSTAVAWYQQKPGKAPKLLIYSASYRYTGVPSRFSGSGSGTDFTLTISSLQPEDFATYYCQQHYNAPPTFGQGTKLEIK
9.40
hu023.11 (antibody, human IgG4, V domains shown, humanized from 023c) VH: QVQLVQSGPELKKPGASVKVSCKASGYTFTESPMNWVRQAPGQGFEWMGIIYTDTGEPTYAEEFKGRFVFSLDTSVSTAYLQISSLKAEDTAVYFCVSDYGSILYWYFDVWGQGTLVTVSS VL: DIQMTQSPSSLSASVGDRVTITCKASQDVSTAVAWYQQKPGKSPKLLIYSASYRYTGVPSRFSGSGSGTDFTFTISSLQPEDFATYYCQQHYNAPPTFGQGTKLEIK
9.77
023c (antibody, human IgG4, V domains shown, human IgG4 S228P / kappa chimeric antibody; also called chimeric antibody 023; ES005-023c; not shown: human kappa light chain constant region (pcDNA3.4-hIgGk vector)) VH: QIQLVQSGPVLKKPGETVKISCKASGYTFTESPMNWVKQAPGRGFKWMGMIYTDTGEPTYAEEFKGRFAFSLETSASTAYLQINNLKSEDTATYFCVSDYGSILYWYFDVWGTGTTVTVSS VL: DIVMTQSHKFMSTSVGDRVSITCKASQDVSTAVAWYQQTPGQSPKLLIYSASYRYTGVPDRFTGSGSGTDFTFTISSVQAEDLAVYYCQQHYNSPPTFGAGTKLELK
9.59

Proceed to the following item.
Problem: # query: pEC50 of entry hu023.07 (antibody, human IgG4, V domains shown, humanized from 023c) VH: QVQLVQSGPEVKKPGASVKVSCKASGYTFTESPMNWVRQAPGQGFEWMGIIYTDTGEPTYAEEFKGRVTMTLDTSTSTVYMELSSLRSEDTAVYFCASDYGSILYWYFDVWGQGTLVTVSS VL: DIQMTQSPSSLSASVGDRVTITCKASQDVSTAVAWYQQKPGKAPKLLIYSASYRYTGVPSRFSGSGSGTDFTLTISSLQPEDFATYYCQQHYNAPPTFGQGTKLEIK
Result: 9.49
